# Assay target: DCN1 (DCUND1) protein PONY domain (Homo sapiens (Human))
# Sequence (Q96GG9 60-248): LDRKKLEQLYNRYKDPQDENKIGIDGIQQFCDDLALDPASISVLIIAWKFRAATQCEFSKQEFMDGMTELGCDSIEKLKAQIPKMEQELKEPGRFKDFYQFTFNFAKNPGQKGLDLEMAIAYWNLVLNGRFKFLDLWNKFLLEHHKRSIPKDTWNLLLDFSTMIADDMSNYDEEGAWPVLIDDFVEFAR
# Assay summary: TR-FRET assay, DCN1 binding with FAM-labeled probe
# Assay context: 24 hr after treatment with compound; read-out: TR FRET IC50 24 hr
Where a name gives a salt, the structure may show the parent alone.
Entries annotated with measured IC50

Compound	Reported property	Result
CCN1C(=O)[C@@H](NC(=O)c2cccc(C(F)(F)F)c2)[C@@H](C2CCCC2)c2c(C(=O)N(CC#N)C3CC3)nn(C3CCOCC3)c21	IC50	≤ 0.2 µM

Exercise: // fetch IC50; item: C/C=C/S(=O)(=O)NCc1nn(-c2ccccc2)c2c1[C@H](c1ccc(F)cc1)[C@H](NC(=O)c1cccc(C(F)(F)F)c1)C(=O)N2CC (racemic) ; system: DCN1 (DCUND1) protein PONY domain (Homo sapiens (Human))
Solution: ≤ 0.2 µM

Exercise: // fetch IC50; item: CCN1C(=O)[C@@H](NC(=O)c2cccc(C(F)(F)F)c2)[C@@H](c2ccc(F)cc2)c2c(CNCC#N)nn(-c3ccccc3)c21 (racemic) ; system: DCN1 (DCUND1) protein PONY domain (Homo sapiens (Human))
Solution: 0.2 to 1 µM

Exercise: // fetch IC50; item: `CCN1C(=O)[C@@H](NC(=O)c2cccc(C(F)(F)F)c2)[C@@H](c2ccc(F)cc2)c2c(CN(C)C/C=C/C(=O)N(C)C)nn(-c3ccccc3)c21` ; system: DCN1 (DCUND1) protein PONY domain (Homo sapiens (Human))
Solution: ≤ 0.2 µM

Exercise: // fetch IC50; item: CCN1C(=O)[C@@H](NC(=O)c2cccc(C(F)(F)F)c2)[C@@H](c2ccc(F)cc2)c2c(C(F)CNC#N)nn(-c3ccccc3)c21 (mixture of isomers) ; system: DCN1 (DCUND1) protein PONY domain (Homo sapiens (Human))
Solution: ≤ 0.2 µM

Exercise: // fetch IC50; item: `CCN1C(=O)[C@@H](NC(=O)c2cnc(C)cc2Cl)[C@@H](C2CC2)c2c(C(=O)N3[C@H](C#N)C[C@H]4C[C@H]43)nn(C3CCOCC3)c21` ; system: DCN1 (DCUND1) protein PONY domain (Homo sapiens (Human))
Solution: 1 to 3 µM

Exercise: // fetch IC50; item: CCN1C(=O)[C@@H](NC(=O)c2cccc(C(F)(F)F)c2)[C@@H](c2ccc(F)cc2)c2c(C(=O)N3CCC[C@@H]3C#N)nn(-c3ccccc3)c21 (mixture of isomers) ; system: DCN1 (DCUND1) protein PONY domain (Homo sapiens (Human))
Solution: 0.2 to 1 µM

Exercise: // fetch IC50; item: CCN1C(=O)[C@H](NC(=O)c2cccc(C(F)(F)F)c2)[C@@H](c2ccc(F)cc2)c2c([C@@H](C)N(C#N)CCCN(C)C)nn(-c3ccccc3)c21 [Compound I-609, formate] ; system: DCN1 (DCUND1) protein PONY domain (Homo sapiens (Human))
Solution: ≤ 0.2 µM

Exercise: // fetch IC50; item: CCN1C(=O)[C@@H](NC(=O)c2cccc(C(F)(F)F)c2)[C@@H](c2ccc(F)cc2)c2c(C(=O)N3C[C@H](F)C[C@H]3C#N)nn(-c3ccccc3)c21 (mixture of isomers) ; system: DCN1 (DCUND1) protein PONY domain (Homo sapiens (Human))
Solution: ≤ 0.2 µM

Exercise: // fetch IC50; item: CCN1C(=O)[C@@H](NC(=O)c2cccc(C(F)(F)F)c2)[C@@H](c2ccc(F)cc2)c2c(C(=O)N(CC#N)CCC(=O)OC)nn(-c3ccccc3)c21 (stereo in doubt) ; system: DCN1 (DCUND1) protein PONY domain (Homo sapiens (Human))
Solution: ≤ 0.2 µM
